# target: Cannabinoid receptor 1 (Homo sapiens)
# Sequence (P21554 whole entry): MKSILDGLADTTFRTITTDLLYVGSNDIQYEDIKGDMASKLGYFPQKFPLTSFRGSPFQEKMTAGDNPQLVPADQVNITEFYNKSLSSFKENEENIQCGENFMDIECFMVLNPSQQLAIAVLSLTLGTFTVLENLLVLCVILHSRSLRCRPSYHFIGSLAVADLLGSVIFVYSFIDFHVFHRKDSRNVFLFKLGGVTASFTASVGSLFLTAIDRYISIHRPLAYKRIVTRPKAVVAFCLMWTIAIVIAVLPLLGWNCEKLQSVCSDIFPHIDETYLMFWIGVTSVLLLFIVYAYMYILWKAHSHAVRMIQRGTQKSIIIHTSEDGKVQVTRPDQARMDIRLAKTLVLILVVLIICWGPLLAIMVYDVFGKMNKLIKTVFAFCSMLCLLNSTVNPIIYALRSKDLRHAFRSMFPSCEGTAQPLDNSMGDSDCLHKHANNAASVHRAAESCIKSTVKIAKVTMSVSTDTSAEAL
# experiment.summary: biochemical
# Format: cell-based, CHO
Hi! Could you tag entries with Ki below 2000 nM as 1, and those at or above as 0? Much appreciated.

> print(dat)
                         structure.notation                                 target  answer.label
1  O=C1N(Cc2ccccc2)C(=S)NC1(c1ccc(Br)cc1)c1ccc(Br)cc1  Cannabinoid receptor 1 (Homo sapiens)             1

Ask: Is it true that Ki reported for C=CCN1C(=O)C(c2ccc(Br)cc2)(c2ccc(Br)cc2)NC1=S is less than 2000 nM?
Reply: 1

Ask: Is it true that Ki reported for CCN1C(=O)C(c2ccc(Br)cc2)(c2ccc(Br)cc2)NC1=S is less than 2000 nM?
Reply: 0
